Assay: Solubility of Drugs in single solvent alcohols
Assay type: physicochemical
Details: Solubility at Room Temperature
Measured Maximum Drug Concentration in single alcohol: PG, listed per entry for reference.
Output: the number by itself.

Some solved cases for reference:
> print(dat)
                                   compound  result
1  CC(C)Cc1ccc(C(C)C(=O)O)cc1 (centres unmarked)   15.38
2  COc1ccc2c(c1)c(CC(=O)O)c(C)n2C(=O)c1ccc(Cl)cc1    0.05
3                        CC(=O)Nc1ccc(O)cc1    4.76
4  CC(C(=O)O)c1ccc(-c2ccccc2)c(F)c1 (centres unmarked)    6.25

Which Maximum Drug Concentration in single alcohol: PG value belongs to O=C(O)Cc1ccccc1Nc1c(Cl)cccc1Cl ?
14.29

---

Experiment: Solubility of Drugs in single solvent alcohols
Format: physicochemical
Details: Solubility at Room Temperature
Measurement Kind: Maximum Drug Concentration in single alcohol: PEG
Output: the number by itself.

Which Maximum Drug Concentration in single alcohol: PEG value belongs to O=C(O)Cc1ccccc1Nc1c(Cl)cccc1Cl [Diclofenac] ?
7.69

Which Maximum Drug Concentration in single alcohol: PEG value belongs to CC(C)Cc1ccc(C(C)C(=O)O)cc1 (centres unmarked) [Ibuprofen] ?
22.22

Which Maximum Drug Concentration in single alcohol: PEG value belongs to CC(=O)Nc1ccc(O)cc1 [Acetaminophen] ?
5.41

Which Maximum Drug Concentration in single alcohol: PEG value belongs to COc1ccc2c(c1)c(CC(=O)O)c(C)n2C(=O)c1ccc(Cl)cc1 [Indomethacin] ?
0.05

Which Maximum Drug Concentration in single alcohol: PEG value belongs to CC(C(=O)O)c1ccc(-c2ccccc2)c(F)c1 (centres unmarked) [Flurbiprofen] ?
12.50

---

Test: Super-solvent water effect (maximum water before NSAID precipitates)
Format: physicochemical
Conditions: Ibuprofen 3 gm, PG 4 gm, PEG 3 gm, IPA 1.1 gm
Measurement Kind: Super-solvent Effect on water (%)
Dear colleague, please return just the value in %, with no unit written.

Which Super-solvent Effect on water value belongs to CC(C)Cc1ccc(C(C)C(=O)O)cc1 (stereo not shown) ?
57.2

---

Experiment: Super-solvent water effect (maximum water before NSAID precipitates)
Type: physicochemical
Conditions: Ibuprofen 2 gm, PG 4 gm, IPA 1.1 gm
Measurement Kind: Super-solvent Effect on water (%)
Dear colleague, please return just the value in %, with no unit written.

Which Super-solvent Effect on water value belongs to CC(C)Cc1ccc(C(C)C(=O)O)cc1 (stereo not shown) ?
65.3

---

Assay: Solubility of Drugs in single solvent alcohols
Type: physicochemical
Details: Solubility at Room Temperature
Measurement Kind: Maximum Drug Concentration in single alcohol: EtOH
Output: the number by itself.

Some solved cases for reference:
> print(dat)
                                   compound  result
1         O=C(O)c1cccnc1Nc1cccc(C(F)(F)F)c1    3.23
2                        CC(=O)Nc1ccc(O)cc1    9.52
3  COc1ccc2c(c1)c(CC(=O)O)c(C)n2C(=O)c1ccc(Cl)cc1    0.25
4  CC(C(=O)O)c1ccc(-c2ccccc2)c(F)c1 (stereo not shown)   16.67
5  CC(C)Cc1ccc(C(C)C(=O)O)cc1 (stereo not shown)   37.04
6                   CCCCOc1ccc(CC(=O)NO)cc1    1.23

Which Maximum Drug Concentration in single alcohol: EtOH value belongs to O=C(O)Cc1ccccc1Nc1c(Cl)cccc1Cl ?
11.11

The measurements presented in this section are drawn from patent US20130243707A1.
